For each record, write down the corresponding normalized growth.
- experimentalDetails: chemical genetic growth profiling, strain panel (AID 1159580);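 note: tested at 20 µM; growth read once vehicle control cultures reached saturation at 30 °C; 1 = growth at the plate median or of vehicle wells; lower values mean less growth of the strain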
- details: S. cerevisiae deletion strains, growth OD, locus YBR135W, strain CKS1, active compounds read low
Screen size: about 5,500 compounds; about 2,000 (36%) were called active. About 18% were inconclusive and are not listed. The list shows a part of the results.
Give the figure by itself; no unit, no explanation.

Consider the molecule `COC(=O)C1=C(C)NC(C)=C(C(=O)OC)C1c1ccc(Cl)cc1Cl` and give its measured normalized growth.
0.971

`CC(C)c1ccc(NC(=S)NC(=O)c2ccccc2)cc1` ?
0.957

What do we get for `O=c1c(Cl)c(-n2cccn2)cnn1-c1ccc(Cl)cc1Cl` ?
0.943

Now try `O=C(NCCSCc1cccc(C(F)(F)F)c1)Nc1cccc(C(F)(F)F)c1` .
0.994

Another molecule to look at: `CCOc1ccc(/C=C(\C)[N+](=O)[O-])cc1OC`
0.97

Further, for `Fc1cccc(Cl)c1CSc1nncn1-c1ccc(OCc2ccccc2)cc1` ?
1

Another molecule to check: `N#CC(C#N)=C/C=C(/Sc1ccc(F)c(Cl)c1)c1ccc(Cl)cc1`
0.943

Please do the same for `Cc1c(C)c(C)c(CSC(N)=Nc2ccc(F)cc2)c(C)c1C` as well.
0.994

Please do the same for `O=C(Nc1ccc(N2CCOCC2)cc1)c1ccc(-n2cccn2)cc1` as well.
0.974

Same for `CCOC(=O)/C(=N/Nc1c(Cl)cccc1Cl)c1csc(N)n1`
0.973

What do you get for `Cc1c2c(=O)[nH]ncc2c(-c2ccccc2)n1-c1ccc([N+](=O)[O-])cc1` ?
0.998

Here is the next molecule: CCOC(=O)C1=C(N)OC2=C(C(=O)CC(C)(C)C2)C1c1ccc(Cl)cc1Cl (stereo not given)
0.978

Also check `C/C(=C\c1ccc2c(c1)OCO2)[N+](=O)[O-]`
0.0821

# iterate: O=C1CSC(c2cccnc2)N1c1ccc(Cl)cc1Cl (stereo not given)
0.994

What about this molecule? `O=C(NCCSCc1cccc(C(F)(F)F)c1)c1ccc(Cl)cc1`
0.953

* * *

- experimentalDetails: chemical genetic growth profiling, strain panel (AID 1159580);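 note: tested at 20 µM; growth read once vehicle control cultures reached saturation at 30 °C; 1 = growth at the plate median or of vehicle wells; lower values mean less growth of the strain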
- details: S. cerevisiae deletion strains, growth OD, locus YCR088W, strain abp1, active compounds read low
The campaign covered roughly 5,500 compounds. About 2,000 (36%) were called active. About 18% were inconclusive and are not listed. The list shows a part of the results.
reportedMetric: normalized growth
Write the value as a bare number.

Item under review: COc1ccccc1OCCNCC(O)COc1cccc2[nH]c3ccccc3c12 (stereo not given) . Reported normalized growth?
1.04

Continue with `C[C@H](N)[C@H](O)c1ccc(O)c(O)c1`
1

Repeat with `Oc1c(Br)cc(Br)c2cccnc12`
0.0595

Another compound to check: CC(C)(C)NCC(O)c1ccccc1Cl (stereo not given)
0.99

And for `Oc1ccc(Cl)c2cccnc12` ?
0.0863

Okay, and CC(=O)O[C@@H]1CC2C(C)(C)C=CC(=O)[C@]2(C)C2CC[C@@]3(C)[C@H](c4ccoc4)OC(=O)C4OC43[C@@]21C (stereo not given in full) ?
0.994

Similarly, `N[C@@H](Cc1ccc(O)c(O)c1)C(=O)O` ?
0.999

Please do the same for `Oc1c(Cl)cc(Cl)c2cccnc12` as well.
0.0623

Please do the same for CO[C@H]1/C=C/O[C@@]2(C)Oc3c(C)c(O)c4c(O)c(c5c(nc6cc(C)ccn65)c4c3C2=O)NC(=O)/C(C)=C\C=C\[C@H](C)[C@H](O)[C@@H](C)C(O)[C@@H](C)[C@H](OC(C)=O)[C@@H]1C (stereo not given in full) as well.
1.04

Next: `O=C(O)c1ccccc1Nc1ccccc1`
0.907

* * *

- experimentalDetails: chemical genetic growth profiling, strain panel (AID 1159580);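 note: tested at 20 µM; growth read once vehicle control cultures reached saturation at 30 °C; 1 = growth at the plate median or of vehicle wells; lower values mean less growth of the strain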
- details: S. cerevisiae deletion strains, growth OD, locus YPR163C, strain tif3, active compounds read low
Hit rate of the full screen: of about 5,500 compounds, about 2,000 (36%) were called active. About 18% were inconclusive and are not listed. The list shows a part of the results.
Could you please report measured normalized growth for the items listed next?

Recorded normalized growth for `COc1cc(C(=O)NCc2ccc(OCCN(C)C)cc2)cc(OC)c1OC` , please?
0.988 (inactive)

Also need `CC(=O)NCCCCCC(=O)O` , thanks.
0.98 (inactive)

And `C/C=C/c1ccc2c(c1)OCO2` ?
1 (inactive)

Could you do the same for COC(=O)[C@]1(C)CC[C@]2(C)CC[C@]3(C)C4=CCc5c(cc(O)c(O)c5C)[C@]4(C)CC[C@@]3(C)C2C1 (stereo partly specified) , please?
0.968 (inactive)

Then what about the compound CC1(C)C(=O)C=C[C@@]2(C)C1=C(O)C(=O)[C@]1(C)C2CC[C@@]2(C)[C@H](c3ccoc3)C[C@H]3O[C@]321 (stereo partly specified) ?
0.665 (active)

Another compound: CC(=O)O[C@@H]1CC2C(C)(C)C=CC(=O)[C@]2(C)C2CC[C@@]3(C)[C@H](c4ccoc4)OC(=O)C4OC43[C@@]21C (stereo partly specified)
1.01 (inactive)

And the next one, `COc1ccc(C(Cl)=C(c2ccc(OC)cc2)c2ccc(OC)cc2)cc1` ?
1.03 (inactive)

Proceed to Cc1c(O)c(O)cc2c1CC=C1[C@@]2(C)CC[C@@]2(C)C3C[C@](C)(C(=O)O)CC[C@]3(C)CC[C@]12C (stereo partly specified)
0.924 (inactive)

Likewise for `CCN(CC)CCOc1ccc2c(c1)C(=O)c1cc(OCCN(CC)CC)ccc1-2` ?
0.97 (inactive)

For `COc1c2c(cc3c1OCO3)CCN(C)C2` then?
0.995 (inactive)

Now consider `CC/C(=C(\c1ccccc1)c1ccc(OCCN(C)C)cc1)c1ccccc1` and answer again.
0.0696 (active)

* * *

Can you tell me normalized growth for the items I'm about to list?
- experimentalDetails: chemical genetic growth profiling, strain panel (AID 1159580);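 note: tested at 20 µM; growth read once vehicle control cultures reached saturation at 30 °C; 1 = growth at the plate median or of vehicle wells; lower values mean less growth of the strain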
- details: S. cerevisiae deletion strains, growth OD, strain wtn01, active compounds read low
Screen size: about 5,500 compounds; about 2,000 (36%) were called active. About 18% were inconclusive and are not listed. This is one part of the list.
Answer using only a numeral; do not append any unit.

I would be grateful if you could share the reported normalized growth for Nc1nc2c(ncn2C2C[C@H](O)[C@@H](CO)O2)c(=O)[nH]1 (some centres undefined) .
0.229

Moving on to the next molecule: O=c1[nH]c(=O)n(C2C[C@@H](O)[C@@H](CO)O2)cc1F (some centres undefined)
0.996

What do you get for Nc1ncnc2c1ncn2C1O[C@H](COP(=O)(O)O)[C@@H](O)[C@H]1O (some centres undefined) ?
0.866

What do you get for CC(=O)O[C@@H]1CC2C(C)(C)C=CC(=O)[C@]2(C)C2CC[C@@]3(C)[C@H](c4ccoc4)OC(=O)C4OC43[C@@]21C (some centres undefined) ?
1.01

Next record, please: CC(C)NCC(O)c1ccc2ccccc2c1 (centres undefined)
1.03

Again, but for `CN/C(=C\[N+](=O)[O-])NCCSCc1ccc(CN(C)C)o1`
0.987

Then `C/C=C/c1ccc2c(c1)OCO2` ?
1.06

And what about the molecule COC(=O)[C@]1(C)CC[C@]2(C)CC[C@]3(C)C4=CCc5c(cc(O)c(O)c5C)[C@]4(C)CC[C@@]3(C)C2C1 (some centres undefined) ?
0.929

Same question, CC(=O)O[C@@H]1C[C@@]2(C)[C@H](c3ccoc3)C[C@H]3O[C@]32[C@]2(C)C(=O)C(O)=C3C(C)(C)C(=O)C=C[C@]3(C)C12 (some centres undefined) this time
0.864

Now the same for O=C1O[C@H](C(O)CO)C(O)=C1O (some centres undefined)
0.932

Also, `C=C(CC)C(=O)c1ccc(OCC(=O)O)c(Cl)c1Cl` please.
0.997

Now give it for `CN[C@H](CC(=O)O)C(=O)O` too.
0.963

What would you report for `CC(C)(C)NC[C@@H](O)COc1nsnc1N1CCOCC1` ?
0.943

Ok, now O=C(OC1Cc2c(O)cc(O)cc2OC1c1cc(O)c(O)c(O)c1-c1c(C2Oc3cc(O)cc(O)c3CC2OC(=O)c2cc(O)c(O)c(O)c2)cc(O)c(O)c1O)c1cc(O)c(O)c(O)c1 (centres undefined)
0.994

Follow-up item: `CC(=O)Oc1ccc(Cl)c2cccnc12`
0.0713

Next molecule up: `COC(=O)Oc1ccccc1C(=O)O`
1.01

Next up: CCCC(C)C1(CC)C(=O)N=C(S)NC1=O (centres undefined)
0.06

Query `Nc1ccc(S(=O)(=O)Nc2ccccn2)cc1` next
0.998

`CNc1ccccc1C(=O)O` , same question.
1.01

For `Cc1ccsc1/C=C/C1=NCCCN1C` then?
0.949

// same read-out, input: `Oc1c(I)cc(I)c2cccnc12`
0.116

Now try `COc1cc(C(=O)NCc2ccc(OCCN(C)C)cc2)cc(OC)c1OC` .
1

Would you kindly repeat that for `COc1c2c(cc3c1OCO3)CCN(C)C2` ?
0.997

And for `Cc1occc(=O)c1O` ?
0.993

All values here come from PubChem BioAssay AID1159580.
